Give measured self-splicing fitness (ln) for each item. Keep answers brief.
experiment: self-splicing fitness, log relative to wild type (ln ratio); higher = more splicing; Tetrahymena group I intron in knt gene, E. coli kanamycin selection, DiMSum; sequences stand for … in CUCUCU…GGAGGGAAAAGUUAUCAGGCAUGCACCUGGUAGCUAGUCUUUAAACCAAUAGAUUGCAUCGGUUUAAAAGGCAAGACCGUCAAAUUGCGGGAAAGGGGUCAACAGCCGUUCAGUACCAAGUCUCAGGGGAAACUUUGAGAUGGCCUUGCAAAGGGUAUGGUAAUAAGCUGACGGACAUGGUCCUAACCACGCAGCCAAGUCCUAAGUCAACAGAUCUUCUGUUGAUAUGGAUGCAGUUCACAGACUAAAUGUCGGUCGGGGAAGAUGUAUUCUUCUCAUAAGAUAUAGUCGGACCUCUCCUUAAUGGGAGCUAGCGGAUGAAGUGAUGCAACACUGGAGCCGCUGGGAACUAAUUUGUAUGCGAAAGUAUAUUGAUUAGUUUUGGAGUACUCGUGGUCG; details: 37 °C;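 note: selection with 25 µg/mL kanamycin versus none on LB agar overnight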
API doc: respond with a numeric literal and nothing else, no unit.

Q) Entry UUAUAGCAAUAUUACGCCAA : reported self-splicing fitness (ln) = ?
A) -0.44

Q) Entry GAGCAGCAAUAUUACGCAAA : reported self-splicing fitness (ln) = ?
A) -0.683

Q) Entry AAAGAGCAAUAUUACGGCAU : reported self-splicing fitness (ln) = ?
A) -0.726

Q) Entry UACAAGCAAUAUUACGCCAG : reported self-splicing fitness (ln) = ?
A) -1.81

Q) Entry UGGGAGCAAUAUUACGUCGA : reported self-splicing fitness (ln) = ?
A) -1.21

Q) Entry CACAAGCAAUAUUACGUCUC : reported self-splicing fitness (ln) = ?
A) -2.5

Q) Entry GAGCAGCAAUAUUACGUUGC : reported self-splicing fitness (ln) = ?
A) -3.41

Q) Entry CGAAAGCAAUAUUACGCGUA : reported self-splicing fitness (ln) = ?
A) -1.95

Q) Entry UCAUAGCAAUAUUACGAUCU : reported self-splicing fitness (ln) = ?
A) -1.88

Q) Entry UUUAAGCAAUAUUACGAGUU : reported self-splicing fitness (ln) = ?
A) -2.09

Q) Entry UCCUAGCAAUAUUACGCGCA : reported self-splicing fitness (ln) = ?
A) -0.0853

Q) Entry UGGUAGCAAUAUUACGCGCG : reported self-splicing fitness (ln) = ?
A) -0.0153

Q) Entry GCGAAGCAAUAUUACGAUCU : reported self-splicing fitness (ln) = ?
A) -0.73

Q) Entry AAACAGCAAUAUUACGCAAG : reported self-splicing fitness (ln) = ?
A) -1.8

Q) Entry GUGUAGCAAUAUUACGGUCA : reported self-splicing fitness (ln) = ?
A) -2.06

Q) Entry UUUAAGCAAUAUUACGGGAG : reported self-splicing fitness (ln) = ?
A) -1.32

----------
Give measured self-splicing fitness (ln) for each item. Keep answers brief.
assay: self-splicing fitness, log relative to wild type (ln ratio); higher = more splicing; Tetrahymena group I intron in knt gene, E. coli kanamycin selection, DiMSum; sequences stand for … in CUCUCU…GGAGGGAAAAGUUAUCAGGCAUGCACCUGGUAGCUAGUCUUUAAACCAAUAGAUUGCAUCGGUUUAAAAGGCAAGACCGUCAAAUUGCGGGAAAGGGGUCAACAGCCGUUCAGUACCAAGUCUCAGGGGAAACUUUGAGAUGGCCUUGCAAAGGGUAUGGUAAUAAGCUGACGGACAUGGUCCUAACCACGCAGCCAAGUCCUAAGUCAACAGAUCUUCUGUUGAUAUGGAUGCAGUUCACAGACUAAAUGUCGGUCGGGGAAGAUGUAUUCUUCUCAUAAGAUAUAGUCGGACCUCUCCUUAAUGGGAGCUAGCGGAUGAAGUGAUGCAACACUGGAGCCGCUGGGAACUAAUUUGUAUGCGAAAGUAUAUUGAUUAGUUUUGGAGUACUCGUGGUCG; settings: 30 °C
API doc: respond with a numeric literal and nothing else, no unit.

Q) Entry CGUUAGCAAUAUUACGAUGU : reported self-splicing fitness (ln) = ?
A) -2.6

Q) Entry GAAUAGCAAUAUUACGGAAU : reported self-splicing fitness (ln) = ?
A) -2.69

Q) Entry AUGUAGCAAUAUUACGACUU : reported self-splicing fitness (ln) = ?
A) -0.0543

Q) Entry CGAGAGCAAUAUUACGUUAG : reported self-splicing fitness (ln) = ?
A) -4.23

Q) Entry GCUGAGCAAUAUUACGUUAA : reported self-splicing fitness (ln) = ?
A) -3.04

Q) Entry GUUCAGCAAUAUUACGCAUA : reported self-splicing fitness (ln) = ?
A) -0.815

Q) Entry UUUAAGCAAUAUUACGGGAG : reported self-splicing fitness (ln) = ?
A) -1.75

Q) Entry CGAAAGCAAUAUUACGUUUG : reported self-splicing fitness (ln) = ?
A) -2.33

Q) Entry AUUGAGCAAUAUUACGAUAC : reported self-splicing fitness (ln) = ?
A) -3.01

Q) Entry AGGUAGCAAUAUUACGAUAA : reported self-splicing fitness (ln) = ?
A) -1.65

Q) Entry ACCCAGCAAUAUUACGAAGA : reported self-splicing fitness (ln) = ?
A) -1.74

Q) Entry GUGAAGCAAUAUUACGCUUU : reported self-splicing fitness (ln) = ?
A) -4.83

Q) Entry AGAGAGCAAUAUUACGUCUC : reported self-splicing fitness (ln) = ?
A) -2.95

Q) Entry GCAAAGCAAUAUUACGCUUA : reported self-splicing fitness (ln) = ?
A) -2.59

Q) Entry UCGUAGCAAUAUUACGUACU : reported self-splicing fitness (ln) = ?
A) -2.04

Q) Entry GUCGAGCAAUAUUACGAUGU : reported self-splicing fitness (ln) = ?
A) -0.956

Q) Entry GAAAAGCAAUAUUACGAAAC : reported self-splicing fitness (ln) = ?
A) -2.88

Q) Entry CCUGAGCAAUAUUACGAGUG : reported self-splicing fitness (ln) = ?
A) -1.44

Q) Entry CUGGAGCAAUAUUACGUGGA : reported self-splicing fitness (ln) = ?
A) -1.96

Q) Entry AGGGAGCAAUAUUACGACAA : reported self-splicing fitness (ln) = ?
A) -3.29

Q) Entry UCGUAGCAAUAUUACGUGCG : reported self-splicing fitness (ln) = ?
A) -2.44

Q) Entry UCAUAGCAAUAUUACGCACA : reported self-splicing fitness (ln) = ?
A) -1.21

Q) Entry UCAGAGCAAUAUUACGAACU : reported self-splicing fitness (ln) = ?
A) -2.02

Q) Entry UGGUAGCAAUAUUACGCACA : reported self-splicing fitness (ln) = ?
A) -0.0584

Q) Entry UUCAAGCAAUAUUACGUUAA : reported self-splicing fitness (ln) = ?
A) -1.59

Q) Entry CGCCAGCAAUAUUACGGAUU : reported self-splicing fitness (ln) = ?
A) -3.66

Q) Entry CGCGAGCAAUAUUACGCAGG : reported self-splicing fitness (ln) = ?
A) -2.68

Q) Entry GGUCAGCAAUAUUACGACAG : reported self-splicing fitness (ln) = ?
A) -0.391

Q) Entry GAGAAGCAAUAUUACGACUA : reported self-splicing fitness (ln) = ?
A) -0.502

Q) Entry AGGCAGCAAUAUUACGCCAC : reported self-splicing fitness (ln) = ?
A) -3.45

Q) Entry GGGAAGCAAUAUUACGGCUG : reported self-splicing fitness (ln) = ?
A) -0.935

Q) Entry GCUAAGCAAUAUUACGUGAU : reported self-splicing fitness (ln) = ?
A) -1.18

Q) Entry GGUAAGCAAUAUUACGAAAU : reported self-splicing fitness (ln) = ?
A) -1.94

Q) Entry CCCAAGCAAUAUUACGAGUG : reported self-splicing fitness (ln) = ?
A) -2.61

Q) Entry CUUCAGCAAUAUUACGAAUA : reported self-splicing fitness (ln) = ?
A) -2.77

Q) Entry CUUUAGCAAUAUUACGAGAC : reported self-splicing fitness (ln) = ?
A) -1.83

Q) Entry GGCCAGCAAUAUUACGUGUU : reported self-splicing fitness (ln) = ?
A) -0.771

Q) Entry AGAUAGCAAUAUUACGGCAG : reported self-splicing fitness (ln) = ?
A) -0.945

Q) Entry AUGCAGCAAUAUUACGGAUU : reported self-splicing fitness (ln) = ?
A) -1.57

Q) Entry AAUAAGCAAUAUUACGCUCC : reported self-splicing fitness (ln) = ?
A) -1.46

Q) Entry AAGGAGCAAUAUUACGUUAA : reported self-splicing fitness (ln) = ?
A) -3.12

Q) Entry CGUCAGCAAUAUUACGAGCA : reported self-splicing fitness (ln) = ?
A) -0.74

Q) Entry UCUGAGCAAUAUUACGUCGG : reported self-splicing fitness (ln) = ?
A) -0.746

Q) Entry AAGGAGCAAUAUUACGGACC : reported self-splicing fitness (ln) = ?
A) -2.55

Q) Entry GAGCAGCAAUAUUACGGAUA : reported self-splicing fitness (ln) = ?
A) -2.15

Q) Entry GUAAAGCAAUAUUACGCAAA : reported self-splicing fitness (ln) = ?
A) -0.784

Q) Entry UCCGAGCAAUAUUACGAGUA : reported self-splicing fitness (ln) = ?
A) -1.98

Q) Entry UAUCAGCAAUAUUACGCUAC : reported self-splicing fitness (ln) = ?
A) -4.2

Q) Entry GUACAGCAAUAUUACGCAAG : reported self-splicing fitness (ln) = ?
A) -2.59

Q) Entry GCAAAGCAAUAUUACGCCCA : reported self-splicing fitness (ln) = ?
A) -1.56

Q) Entry AUGAAGCAAUAUUACGGUCU : reported self-splicing fitness (ln) = ?
A) -0.0448

Q) Entry UGAAAGCAAUAUUACGAAGG : reported self-splicing fitness (ln) = ?
A) -2.92

Q) Entry AGACAGCAAUAUUACGACCC : reported self-splicing fitness (ln) = ?
A) -0.868

Q) Entry UGCCAGCAAUAUUACGUCGG : reported self-splicing fitness (ln) = ?
A) -4.72

Q) Entry CCAGAGCAAUAUUACGUCCA : reported self-splicing fitness (ln) = ?
A) -2.05

Q) Entry UGCCAGCAAUAUUACGCAUU : reported self-splicing fitness (ln) = ?
A) -3.81

Q) Entry GCACAGCAAUAUUACGUGGG : reported self-splicing fitness (ln) = ?
A) -1.53

Q) Entry CGCGAGCAAUAUUACGGGUA : reported self-splicing fitness (ln) = ?
A) -2.5

Q) Entry AAUCAGCAAUAUUACGCCGA : reported self-splicing fitness (ln) = ?
A) -1.17

Q) Entry GGAGAGCAAUAUUACGUGCA : reported self-splicing fitness (ln) = ?
A) -1.92

Q) Entry CCUUAGCAAUAUUACGUCAU : reported self-splicing fitness (ln) = ?
A) -3.85

Q) Entry AUGAAGCAAUAUUACGGUAA : reported self-splicing fitness (ln) = ?
A) -1.22

Q) Entry AAAUAGCAAUAUUACGAUGA : reported self-splicing fitness (ln) = ?
A) -0.773

Q) Entry UGGCAGCAAUAUUACGACAG : reported self-splicing fitness (ln) = ?
A) -1.02

Q) Entry GCACAGCAAUAUUACGCCAA : reported self-splicing fitness (ln) = ?
A) -3.77

Q) Entry CGAGAGCAAUAUUACGGGCG : reported self-splicing fitness (ln) = ?
A) -2.3

Q) Entry UCAUAGCAAUAUUACGACGU : reported self-splicing fitness (ln) = ?
A) -1.76

These data points were gathered from the supplement of paper PMC7877785.
